biological target: T1, human GPVI extracellular region-human Fc fusion protein (hGPVI-hFc) (human); assay: SPR BIACORE 3000 as in Example 5
T1 construct: Expressed in COS-1, purified on Protein A; also called GPVI-HHH-hFc; hGPVIHHH-hFc
T1 sequence (chain, as listed by the source limits assumed): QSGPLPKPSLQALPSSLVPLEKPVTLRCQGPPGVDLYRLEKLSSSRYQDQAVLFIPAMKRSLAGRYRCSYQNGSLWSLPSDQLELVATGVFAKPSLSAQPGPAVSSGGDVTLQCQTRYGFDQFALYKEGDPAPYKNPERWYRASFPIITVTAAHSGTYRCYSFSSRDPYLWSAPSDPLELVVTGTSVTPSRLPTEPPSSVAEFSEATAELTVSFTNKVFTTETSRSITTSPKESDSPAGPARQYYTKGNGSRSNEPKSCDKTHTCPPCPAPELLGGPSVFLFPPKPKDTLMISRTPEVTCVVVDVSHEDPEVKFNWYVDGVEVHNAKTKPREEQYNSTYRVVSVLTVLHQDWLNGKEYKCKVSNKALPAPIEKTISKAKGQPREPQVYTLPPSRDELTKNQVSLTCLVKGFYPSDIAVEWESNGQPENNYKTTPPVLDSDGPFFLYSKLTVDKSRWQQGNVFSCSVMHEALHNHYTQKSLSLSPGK
Property name: KD (Relative value)

// KD (Relative value) lookup, key: F1245-6-2 (antibody, V domains shown, mouse hybridoma monoclonal antibody) VH: QVQLQQPGAELVKPGASVKLSCKASGYTFTSYWMHWVKQRPGQGLEWIGMIHPNSGSTNYNEKFKSKATLTVDKSSSTAYMQLSSLTSEDSAVYYCARGGVTPVAYWGQGTLVTVSA VL: SIVMTQTPKFLLVSAGDRVTITCKASQSVSNDVAWYQQKPGQSPKLLIYYASNRYTGVPYRFTGSGYGTDFTFTISTVQAEDLAVYFCQQDYSSPWTFGGGTKLEIKR
0.122 relative to F1232-37-2 = 1

The record that follows has no KD (Relative value) shown yet.
// KD (Relative value) lookup, key: F1249-18-2 (antibody, V domains shown, mouse hybridoma monoclonal antibody) VH: QVQLQQPGAELVKPGASVKLSCKASGYTFTSYWMHWLKQRPGQGLEWIGMIHPNSDITNYNEKFKNKATLTVDKSSSTAYMQLSSLTSEDSAVYYCARSGDYYAMDYWGQGTSVTVSS VL: SIVMTQTPKFLLVSAGDRVTITCKASQSVSNDVAWYQQKPGQSPKLLIYYASNRYTGVPDRFTGSGYGTDFTFTISTVQAEDLAVYFCQQDYSSPPTFGGGTKLEIKR
0.00103 relative to F1232-37-2 = 1
